Origin of the recorded values: patent US20070049518A1

Provide the reported pIC50 of each item.
molecular target: purified aureolysin type II (Staphylococcus aureus, UniProt P81177); assay: Aureolysin enzyme inhibition assay, type II; format: biochemical; settings: pH 6.8, 37° C., 1 hour; read-out: IC50 value Aureolysin type II
Give bare numbers, as −log10 of the molar value.

compound	system	observable	observed.measurement
CNC(=O)[C@@H](NC(=O)[C@@H](CC(=O)NO)CC(C)C)C(C)(C)C	purified aureolysin type II (Staphylococcus aureus, UniProt P81177)	pIC50	5.62
CNC(=O)[C@@H](NC(=O)[C@H](CC(=O)NO)CC(C)C)C(C)(C)C	purified aureolysin type II (Staphylococcus aureus, UniProt P81177)	pIC50	5.66
CNC(=O)[C@H](CCc1ccccc1)NC(=O)[C@@H](CC(=O)NO)CC(C)C	purified aureolysin type II (Staphylococcus aureus, UniProt P81177)	pIC50	5.64
CNC(=O)C(CCc1ccccc1)NC(=O)C(CC(=O)NO)CC(C)C (stereo not shown)	purified aureolysin type II (Staphylococcus aureus, UniProt P81177)	pIC50	6.16
CC(C)C[C@@H](C(=O)N[C@H](C(=O)N(C)C)C(C)(C)C)[C@H](O)C(=O)NO	purified aureolysin type II (Staphylococcus aureus, UniProt P81177)	pIC50	4.39

Consider the following items and state reported pIC50 for each.
1. CNC(=O)[C@H](CCc1ccccc1)NC(=O)[C@H](CC(=O)NO)CC(C)C
2. CO[C@H](C(=O)NO)[C@@H](CC(C)C)C(=O)N[C@H](C(=O)Nc1ccccn1)C(C)(C)C

1. 7.03
2. 5.46

###

This document collects pIC50 values reported for human MMP-9 (Homo sapiens, UniProt P14780).
One number for each entry, as −log10 of the molar value.

molecule	observed.measurement
CNC(=O)[C@H](CCc1ccccc1)NC(=O)[C@H](CC(=O)NO)CC(C)C [Compound 16]	5.70

Parameter requested: pIC50. Apply to each item below.
1. COc1ccc(S(=O)(=O)N(CC(=O)NO)CC(C)C)cc1 [Compound 14]
2. CNC(=O)[C@@H](NC(=O)[C@H](CC(=O)NO)CC(C)C)C(C)(C)C [Compound 12]
3. CO[C@H](C(=O)NO)[C@@H](CC(C)C)C(=O)N[C@H](C(=O)Nc1ccccn1)C(C)(C)C [Compound 7, solimastat]

1: 8.00; 2: 5.34; 3: 8.29

###

target: metalloprotease (aureolysin) activity in Staphylococcus aureus 8325-4 culture supernatants (Staphylococcus aureus); construct: 4 μl S. aureus culture supernatant; endogenous in cells; host or cells: Staphylococcus aureus 8325-4 (culture supernatant); experiment: Metalloprotease activity in S. aureus culture supernatants; format: biochemical
Sequence (P81177 209-509): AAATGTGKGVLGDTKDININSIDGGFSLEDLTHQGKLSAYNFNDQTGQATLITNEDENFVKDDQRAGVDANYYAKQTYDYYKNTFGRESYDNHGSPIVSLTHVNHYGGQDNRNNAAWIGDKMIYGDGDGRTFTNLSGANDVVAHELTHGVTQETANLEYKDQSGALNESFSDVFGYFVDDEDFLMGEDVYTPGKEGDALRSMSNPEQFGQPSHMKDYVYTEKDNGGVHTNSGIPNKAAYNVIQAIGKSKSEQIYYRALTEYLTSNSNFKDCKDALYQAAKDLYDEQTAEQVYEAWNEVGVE
observable: IC50 (nM)
One number for each entry, in nM.

molecule	IC50 / nM
CO[C@H](C(=O)NO)[C@@H](CC(C)C)C(=O)N[C@H](C(=O)Nc1ccccn1)C(C)(C)C [Compound 7, solimastat]	4500

For every item in the list below, what is its measured IC50?
1. CNC(=O)[C@H](CCc1ccccc1)NC(=O)[C@@H](CC(=O)NO)CC(C)C [Compound 17]
2. CNC(=O)[C@H](Cc1c[nH]c2ccccc12)NC(=O)[C@@H](CC(=O)NO)CC(C)C [Compound 1, ilomastat]

[2300, 570]

###

Target: human MMP-1 (Homo sapiens, UniProt P03956)
Sequence (P03956 100-469): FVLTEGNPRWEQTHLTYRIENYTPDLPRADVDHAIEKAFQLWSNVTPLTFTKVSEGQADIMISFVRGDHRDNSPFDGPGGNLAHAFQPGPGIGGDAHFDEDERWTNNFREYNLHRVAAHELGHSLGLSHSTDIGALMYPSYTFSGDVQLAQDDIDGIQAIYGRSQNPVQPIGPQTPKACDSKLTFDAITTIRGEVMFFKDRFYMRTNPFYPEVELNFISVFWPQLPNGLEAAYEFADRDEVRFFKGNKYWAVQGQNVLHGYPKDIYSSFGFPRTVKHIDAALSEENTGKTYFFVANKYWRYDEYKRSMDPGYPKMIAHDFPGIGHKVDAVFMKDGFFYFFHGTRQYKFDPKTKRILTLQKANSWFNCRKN
Exercise: state measured IC50 for each of the molecules provided.
Numbers only, in nM.

# count of solved cases: 3
item.smiles	observed.measurement
CC(C)C[C@@H](C(=O)N[C@H](C(=O)Nc1ccccn1)C(C)(C)C)[C@H](O)C(=O)NO	3.1
CNC(=O)[C@H](CCc1ccccc1)NC(=O)[C@@H](CC(=O)NO)CC(C)C	17
CO[C@H](C(=O)NO)[C@@H](CC(C)C)C(=O)N[C@H](C(=O)Nc1ccccn1)C(C)(C)C	3.3

Now examine the next entry.
Look up IC50 for this molecule: `CNC(=O)[C@H](CCc1ccccc1)NC(=O)[C@H](CC(=O)NO)CC(C)C` 6200
